Data origin: the supplement of paper PMC10065799

# System: Fer (mouse)
# procedure text: phosphorylation enrichment, bacterial display (enrichment ratio); higher = better substrate or ligand; peptides without Tyr show the background;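 note: 11-residue human phosphosite peptides and single-mutation variants displayed on the E. coli surface, counted by deep sequencing, each peptide's frequency after selection divided by its frequency in the unselected input library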;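 note: frequency after pTyr selection over input frequency; kinase dosed for 20-30% of maximal phosphorylation in three min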
outcome measure: phosphorylation enrichment

{"columns": ["biosequence", "experimental system", "measurement"],
 "data": [
  ["SVTCTYSPGLN [TP53_Y126_A129G]", "Fer (mouse)", 0.609]
]}

Q: Look at this sequence and give its reported phosphorylation enrichment. TDEYEYDELIV [TGM1_Y136]
Ans: 0.526

Q: Look at this sequence and give its reported phosphorylation enrichment. KPPPTYESEEE [BRD4_Y599]
Ans: 0.753

Q: Look at this sequence and give its reported phosphorylation enrichment. MEIHAYHKLLE [LMNA_Y376_R377H]
Ans: 0.422

Q: Look at this sequence and give its reported phosphorylation enrichment. HFVDEYDRTIE [KRAS_Y32_P34R]
Ans: 0.794

Q: Look at this sequence and give its reported phosphorylation enrichment. DLNATYRTIQG [U2SURP_Y634]
Ans: 0.518

Q: Look at this sequence and give its reported phosphorylation enrichment. SLMNQYVNKKF [RAB7A_Y28]
Ans: 0.398

Q: Look at this sequence and give its reported phosphorylation enrichment. PSTYRYERGSR [INPPL1_Y663_P659S]
Ans: 0.474

====

Each entry below carries its recorded phosphorylation enrichment.
# experimental system: EPHB2 (UniProt P29323)
# Sequence (P29323 whole entry, looked up): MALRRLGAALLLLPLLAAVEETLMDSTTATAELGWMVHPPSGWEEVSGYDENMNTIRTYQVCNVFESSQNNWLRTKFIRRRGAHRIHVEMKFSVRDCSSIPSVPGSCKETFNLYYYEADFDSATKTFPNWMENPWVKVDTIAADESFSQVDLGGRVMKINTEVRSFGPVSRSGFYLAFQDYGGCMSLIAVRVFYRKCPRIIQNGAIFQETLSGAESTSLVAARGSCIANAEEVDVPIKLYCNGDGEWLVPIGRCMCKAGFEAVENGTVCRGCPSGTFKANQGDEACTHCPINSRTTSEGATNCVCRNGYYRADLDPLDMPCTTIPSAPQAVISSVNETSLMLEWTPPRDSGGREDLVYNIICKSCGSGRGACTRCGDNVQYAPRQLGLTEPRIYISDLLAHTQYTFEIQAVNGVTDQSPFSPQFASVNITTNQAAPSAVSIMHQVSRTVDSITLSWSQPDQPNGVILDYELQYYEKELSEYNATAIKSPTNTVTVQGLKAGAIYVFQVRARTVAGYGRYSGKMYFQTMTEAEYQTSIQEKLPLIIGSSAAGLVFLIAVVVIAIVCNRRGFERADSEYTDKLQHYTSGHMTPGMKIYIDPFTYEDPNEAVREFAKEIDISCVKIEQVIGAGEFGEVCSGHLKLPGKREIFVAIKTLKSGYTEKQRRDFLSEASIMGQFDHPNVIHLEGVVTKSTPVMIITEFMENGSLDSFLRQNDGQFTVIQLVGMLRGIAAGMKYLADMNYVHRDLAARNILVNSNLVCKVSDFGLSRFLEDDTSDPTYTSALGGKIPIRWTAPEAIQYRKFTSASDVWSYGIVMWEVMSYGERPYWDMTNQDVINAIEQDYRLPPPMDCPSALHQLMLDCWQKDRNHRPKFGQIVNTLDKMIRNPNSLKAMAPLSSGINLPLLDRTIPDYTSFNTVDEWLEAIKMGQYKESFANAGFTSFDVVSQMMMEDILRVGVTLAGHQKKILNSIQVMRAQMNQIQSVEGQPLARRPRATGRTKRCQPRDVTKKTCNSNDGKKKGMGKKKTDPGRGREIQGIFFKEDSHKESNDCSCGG
# procedure text: phosphorylation enrichment, bacterial display (enrichment ratio); higher = better substrate or ligand; peptides without Tyr show the background
Just the number, please, no unit after it.

Below are worked cases with known answers.
{"columns": ["biosequence", "experimental system", "measurement"],
 "data": [
  ["SLGKGYSDGGC [MC4R_Y35]", "EPHB2 (UniProt P29323)", 0.473],
  ["DKATEYSQYMR [MAX_Y70_I71S]", "EPHB2 (UniProt P29323)", 0.525],
  ["FQNSLYAPDYS [FAM92A_Y226_R222Q]", "EPHB2 (UniProt P29323)", 2.45],
  ["QEIATYRRLPE [KRT16_Y417_L421P]", "EPHB2 (UniProt P29323)", 0.592],
  ["GEDDVYDSVPG [FGR_opt_2018]", "EPHB2 (UniProt P29323)", 0.762]
]}

Next, consider the following sequence.
Q: Look at this sequence and give its reported phosphorylation enrichment. VRTGIYHGGEP [PIK3CA_Y361]
Ans: 0.421

====

# experimental system: FGFR1 (UniProt P11362)
# Sequence (P11362 whole entry, looked up): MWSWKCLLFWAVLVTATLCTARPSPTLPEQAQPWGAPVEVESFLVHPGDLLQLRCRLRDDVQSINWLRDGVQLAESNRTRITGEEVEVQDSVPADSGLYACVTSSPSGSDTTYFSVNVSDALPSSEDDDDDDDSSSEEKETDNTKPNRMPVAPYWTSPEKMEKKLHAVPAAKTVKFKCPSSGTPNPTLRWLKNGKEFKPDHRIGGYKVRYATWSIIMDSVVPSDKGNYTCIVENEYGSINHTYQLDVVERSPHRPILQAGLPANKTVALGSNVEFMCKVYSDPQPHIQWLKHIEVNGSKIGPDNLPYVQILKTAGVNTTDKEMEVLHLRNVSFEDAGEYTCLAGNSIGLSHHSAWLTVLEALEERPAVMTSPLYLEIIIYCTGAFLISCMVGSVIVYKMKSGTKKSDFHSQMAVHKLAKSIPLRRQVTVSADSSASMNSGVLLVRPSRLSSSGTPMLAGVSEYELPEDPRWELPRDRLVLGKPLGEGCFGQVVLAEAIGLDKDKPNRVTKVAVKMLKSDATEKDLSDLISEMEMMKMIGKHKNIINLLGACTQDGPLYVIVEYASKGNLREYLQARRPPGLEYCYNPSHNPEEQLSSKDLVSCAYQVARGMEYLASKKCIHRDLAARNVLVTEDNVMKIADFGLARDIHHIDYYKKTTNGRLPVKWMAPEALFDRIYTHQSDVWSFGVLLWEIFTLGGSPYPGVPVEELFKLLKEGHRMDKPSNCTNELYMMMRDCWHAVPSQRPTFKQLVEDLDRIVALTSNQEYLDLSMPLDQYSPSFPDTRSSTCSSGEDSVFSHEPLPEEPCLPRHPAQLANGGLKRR
# procedure text: phosphorylation enrichment, bacterial display (enrichment ratio); higher = better substrate or ligand; peptides without Tyr show the background
Each entry below carries its recorded phosphorylation enrichment.

{"columns": ["biosequence", "phosphorylation enrichment"],
 "data": [
  ["PKGTGYIKTEL [STAT1_Y701]", 0.792],
  ["QISSNYDDAMQ [ZNF281_Y531]", 0.434],
  ["IGEGTSGVVFK [CDK2_Y15_Y15S_YF]", 0.339]
]}

Q: Look at this sequence and give its reported phosphorylation enrichment. HFVDEYDRTIE [KRAS_Y32_P34R]
Ans: 0.644

Q: Look at this sequence and give its reported phosphorylation enrichment. SLDLSYFTTSS [EMD_Y181_P183T_YF]
Ans: 0.499

Q: Look at this sequence and give its reported phosphorylation enrichment. WYQTKYEELQV [KRT6B_Y360_I365V]
Ans: 0.521

Q: Look at this sequence and give its reported phosphorylation enrichment. KAIMTYVSSFF [ACTN4_Y260_YF]
Ans: 0.533

Q: Look at this sequence and give its reported phosphorylation enrichment. SYSGEYGSGGG [ZG16_Y30_G32S]
Ans: 0.419

Q: Look at this sequence and give its reported phosphorylation enrichment. ALTDNYMYLVI [HAGH_Y61]
Ans: 8.82

====

# experimental system: EPHB1 (UniProt P54762)
# Sequence (P54762 whole entry, looked up): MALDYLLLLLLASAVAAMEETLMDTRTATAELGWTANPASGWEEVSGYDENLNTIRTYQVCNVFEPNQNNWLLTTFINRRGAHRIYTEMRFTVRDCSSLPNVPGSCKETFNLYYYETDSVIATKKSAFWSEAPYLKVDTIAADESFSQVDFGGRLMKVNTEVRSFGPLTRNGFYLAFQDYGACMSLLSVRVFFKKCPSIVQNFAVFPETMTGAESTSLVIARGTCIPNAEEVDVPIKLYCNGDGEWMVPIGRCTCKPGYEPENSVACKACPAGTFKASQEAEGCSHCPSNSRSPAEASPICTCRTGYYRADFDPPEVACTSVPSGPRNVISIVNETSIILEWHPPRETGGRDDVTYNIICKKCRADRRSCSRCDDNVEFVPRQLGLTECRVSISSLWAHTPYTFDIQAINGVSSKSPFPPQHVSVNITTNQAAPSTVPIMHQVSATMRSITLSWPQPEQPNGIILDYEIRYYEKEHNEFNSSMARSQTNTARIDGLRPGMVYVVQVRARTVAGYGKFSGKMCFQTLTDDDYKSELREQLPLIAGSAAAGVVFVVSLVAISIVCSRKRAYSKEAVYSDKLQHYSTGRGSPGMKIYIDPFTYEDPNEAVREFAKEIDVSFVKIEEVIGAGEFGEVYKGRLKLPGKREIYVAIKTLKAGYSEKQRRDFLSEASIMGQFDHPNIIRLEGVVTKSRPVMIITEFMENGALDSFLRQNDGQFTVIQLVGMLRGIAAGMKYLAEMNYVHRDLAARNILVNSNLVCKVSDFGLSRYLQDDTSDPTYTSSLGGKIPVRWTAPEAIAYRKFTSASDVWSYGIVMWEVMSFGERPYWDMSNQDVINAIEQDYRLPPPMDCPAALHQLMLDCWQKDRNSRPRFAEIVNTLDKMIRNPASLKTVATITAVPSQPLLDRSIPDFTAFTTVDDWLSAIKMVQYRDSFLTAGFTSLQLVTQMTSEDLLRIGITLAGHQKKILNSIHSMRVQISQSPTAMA
# procedure text: phosphorylation enrichment, bacterial display (enrichment ratio); higher = better substrate or ligand; peptides without Tyr show the background
outcome measure: phosphorylation enrichment
Just the number, please, no unit after it.

Below are worked cases with known answers.
{"columns": ["biosequence", "outcome measure", "measurement"],
 "data": [
  ["RVGVDYEGRGC [PLOD1_Y675_G678R]", "phosphorylation enrichment", 0.69],
  ["IHHIDYFKETT [FGFR1_Y653_K656E_YF]", "phosphorylation enrichment", 0.456],
  ["RRGTGYTLPLP [MAGEC3_Y152_S155P]", "phosphorylation enrichment", 0.977],
  ["IMAFFYMCDRA [CASD1_Y382_YF]", "phosphorylation enrichment", 0.938],
  ["WSISFYPQVIM [CTNS_Y143]", "phosphorylation enrichment", 0.586],
  ["VFLGAYDHFLP [SLC22A5_Y486_R488H_YF]", "phosphorylation enrichment", 1.8]
]}

Next, consider the following sequence.
Q: # returns recorded phosphorylation enrichment (system: EPHB1 (UniProt P54762)) for PVGVLYEVKVY [PTS_Y128_K129E]
Ans: 0.945

====

# experimental system: Jak2 (UniProt O60674)
# Sequence (O60674 whole entry, looked up): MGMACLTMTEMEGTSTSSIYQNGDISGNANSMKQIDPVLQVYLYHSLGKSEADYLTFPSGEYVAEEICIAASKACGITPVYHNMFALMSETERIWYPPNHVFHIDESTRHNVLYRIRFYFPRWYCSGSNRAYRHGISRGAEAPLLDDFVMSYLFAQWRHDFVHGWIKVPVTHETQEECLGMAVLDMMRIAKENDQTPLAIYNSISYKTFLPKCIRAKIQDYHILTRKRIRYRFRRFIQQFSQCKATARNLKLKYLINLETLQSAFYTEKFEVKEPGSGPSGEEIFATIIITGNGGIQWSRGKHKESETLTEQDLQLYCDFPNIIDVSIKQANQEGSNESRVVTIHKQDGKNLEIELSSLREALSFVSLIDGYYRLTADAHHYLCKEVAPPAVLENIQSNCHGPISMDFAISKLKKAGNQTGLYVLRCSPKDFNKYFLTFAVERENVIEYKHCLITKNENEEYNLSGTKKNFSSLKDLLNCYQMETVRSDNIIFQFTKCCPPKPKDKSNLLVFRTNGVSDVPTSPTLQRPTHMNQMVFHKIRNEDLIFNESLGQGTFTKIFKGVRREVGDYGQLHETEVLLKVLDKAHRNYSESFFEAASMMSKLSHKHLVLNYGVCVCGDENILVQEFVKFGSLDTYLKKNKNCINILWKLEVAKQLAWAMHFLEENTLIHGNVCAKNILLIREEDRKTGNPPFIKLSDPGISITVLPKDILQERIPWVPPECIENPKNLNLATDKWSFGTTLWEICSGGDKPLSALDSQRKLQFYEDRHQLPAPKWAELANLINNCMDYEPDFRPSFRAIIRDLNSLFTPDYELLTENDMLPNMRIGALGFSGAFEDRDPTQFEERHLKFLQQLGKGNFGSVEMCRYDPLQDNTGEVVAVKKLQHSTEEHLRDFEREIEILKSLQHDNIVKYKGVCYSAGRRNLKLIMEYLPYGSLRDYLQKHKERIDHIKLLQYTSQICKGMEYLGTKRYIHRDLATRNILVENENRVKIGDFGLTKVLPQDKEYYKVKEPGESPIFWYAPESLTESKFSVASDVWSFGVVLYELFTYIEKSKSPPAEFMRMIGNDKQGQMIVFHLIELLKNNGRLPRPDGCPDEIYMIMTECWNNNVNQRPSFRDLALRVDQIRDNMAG
# procedure text: phosphorylation enrichment, bacterial display (enrichment ratio); higher = better substrate or ligand; peptides without Tyr show the background
Each record's phosphorylation enrichment is compared with low band (below 0.8), middle band (0.8 to below 1), high band (1 or more) to give its class.

Below are worked cases with known answers.
{"columns": ["biosequence", "class assignment"],
 "data": [
  ["IYETDYYRKGG [INSR_Y1189]", "middle band"],
  ["GRVFVYRLSEQ [ITGAE_Y551_YF]", "middle band"]
]}

Q: # bin lookup: classify LKTNWYNNGKD [DNMT3B_Y404_C403W] by its phosphorylation enrichment
Ans: high band

Q: # bin lookup: classify ISNATYKQIGL [FLT1_Y199_E201Q] by its phosphorylation enrichment
Ans: low band

Q: # bin lookup: classify KTTILYKLKLG [ARF1_Y35] by its phosphorylation enrichment
Ans: middle band

Q: # bin lookup: classify HLQQSYLPRGT [TEX45_Y396] by its phosphorylation enrichment
Ans: high band

====

# experimental system: FGFR1 (UniProt P11362)
# procedure text: phosphorylation enrichment, bacterial display (enrichment ratio); higher = better substrate or ligand; peptides without Tyr show the background
Each entry below carries its recorded phosphorylation enrichment.
Just the number, please, no unit after it.

{"columns": ["biosequence", "outcome measure", "measurement"],
 "data": [
  ["KKIMGYSIRTI [IDS_Y490_I485K]", "phosphorylation enrichment", 0.392]
]}

Q: Look at this sequence and give its reported phosphorylation enrichment. PVFEVYPLLNC [GATA1_Y78_Q76E]
Ans: 2.54

Q: Look at this sequence and give its reported phosphorylation enrichment. RLNWIYYKDQT [RS1_Y165]
Ans: 0.643

Q: Look at this sequence and give its reported phosphorylation enrichment. NAGAFYALSTL [FLVCR2_Y325]
Ans: 0.61

====

# experimental system: Fyn (UniProt P06241)
# Sequence (P06241 whole entry, looked up): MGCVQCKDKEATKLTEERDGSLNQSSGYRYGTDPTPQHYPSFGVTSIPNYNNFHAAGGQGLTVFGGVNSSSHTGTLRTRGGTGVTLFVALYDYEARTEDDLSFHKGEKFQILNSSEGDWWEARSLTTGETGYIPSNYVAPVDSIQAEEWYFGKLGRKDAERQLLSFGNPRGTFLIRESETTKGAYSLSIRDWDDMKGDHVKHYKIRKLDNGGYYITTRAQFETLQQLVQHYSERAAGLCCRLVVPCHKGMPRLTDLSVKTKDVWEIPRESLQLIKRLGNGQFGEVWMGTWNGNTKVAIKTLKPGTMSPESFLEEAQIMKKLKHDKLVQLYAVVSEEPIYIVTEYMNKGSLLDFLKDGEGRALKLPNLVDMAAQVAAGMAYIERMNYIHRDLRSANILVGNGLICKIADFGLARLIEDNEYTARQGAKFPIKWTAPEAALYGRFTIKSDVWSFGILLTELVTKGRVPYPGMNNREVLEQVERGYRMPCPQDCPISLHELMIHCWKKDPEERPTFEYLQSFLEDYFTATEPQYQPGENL
# procedure text: phosphorylation enrichment, bacterial display (enrichment ratio); higher = better substrate or ligand; peptides without Tyr show the background
outcome measure: phosphorylation enrichment
Just the number, please, no unit after it.

Below are worked cases with known answers.
{"columns": ["biosequence", "experimental system", "phosphorylation enrichment"],
 "data": [
  ["DDYDLYGGEKF [PTPN11_Y66_Y62D]", "Fyn (UniProt P06241)", 1.7],
  ["ILQSMYGCDVG [HLA-B_Y123_T118I]", "Fyn (UniProt P06241)", 0.489],
  ["FSLIHYASIVD [MYH7_Y582_G584S]", "Fyn (UniProt P06241)", 0.488],
  ["RKPDIYERLAS [MCM4_Y459]", "Fyn (UniProt P06241)", 0.99],
  ["KQFWRYFAGNL [SLC25A4_Y112]", "Fyn (UniProt P06241)", 0.32],
  ["KPPPTYESEEE [BRD4_Y599]", "Fyn (UniProt P06241)", 0.664],
  ["RTLIRYANLSN [BEST1_Y131_G135S]", "Fyn (UniProt P06241)", 0.79],
  ["KGEDFYYVTCH [FHL1_Y149_C150Y]", "Fyn (UniProt P06241)", 0.692],
  ["ATPKGYELDAS [OTC_Y223_P225L]", "Fyn (UniProt P06241)", 0.478],
  ["YDDGKYVYVVT [RPS6KA3_Y488]", "Fyn (UniProt P06241)", 1.43]
]}

Q: Look at this sequence and give its reported phosphorylation enrichment. IFHENYNAGTF [CFI_Y421_YF]
Ans: 0.461

Q: Look at this sequence and give its reported phosphorylation enrichment. EPAVLYNLKDR [MYH7_Y103]
Ans: 0.583

Q: Look at this sequence and give its reported phosphorylation enrichment. NTQRPHYKGGG [TYROBP_Y111_Y111H]
Ans: 0.402

Q: Look at this sequence and give its reported phosphorylation enrichment. LTKQEYDEAGP [ACTA1_Y364_I359L]
Ans: 0.809
